Hey, just so you know, these numbers are from ChEMBL document CHEMBL1821548.

measuredOn: Mu-type opioid receptor (Homo sapiens)
Sequence (P35372 whole entry): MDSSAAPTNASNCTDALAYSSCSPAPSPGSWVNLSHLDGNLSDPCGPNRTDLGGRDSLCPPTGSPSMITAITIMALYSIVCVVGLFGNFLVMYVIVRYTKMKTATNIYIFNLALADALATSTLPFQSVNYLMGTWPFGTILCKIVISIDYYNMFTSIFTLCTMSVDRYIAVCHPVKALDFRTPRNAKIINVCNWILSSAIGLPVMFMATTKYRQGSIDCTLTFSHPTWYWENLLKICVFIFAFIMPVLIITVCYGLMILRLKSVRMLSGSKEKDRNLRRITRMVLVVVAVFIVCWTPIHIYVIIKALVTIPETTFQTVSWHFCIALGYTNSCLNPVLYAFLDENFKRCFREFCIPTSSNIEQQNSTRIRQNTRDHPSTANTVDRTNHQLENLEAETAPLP
assaySummary: Agonist activity against mu opioid receptor expressed in CHO cells assessed as stimulation of [35S]-GTPgammaS binding relative to DAMGO
Type: functional, cell-based
The following molecules are listed with their measured Emax values.
Lab book: enter the figure in %, no units written.

In the examples that follow, each entry is paired with its recorded Emax.
// Emax value for `Cc1cnccc1C(=O)N[C@@H]1CC[C@@]2(O)[C@H]3Cc4ccc(O)c5c4[C@@]2(CCN3CC2CC2)[C@H]1O5` : 30.6

// Emax value for `Cc1cc(C(=O)N[C@@H]2CC[C@@]3(O)[C@H]4Cc5ccc(O)c6c5[C@@]3(CCN4CC3CC3)[C@H]2O6)ccn1` : 43.3

Continuing:
// Emax value for `O=C(Cc1ccncc1)N[C@@H]1CC[C@@]2(O)[C@H]3Cc4ccc(O)c5c4[C@@]2(CCN3CC2CC2)[C@H]1O5` : 32.8

* * *

measuredOn: UniProt:P41145
Sequence (P41145 whole entry): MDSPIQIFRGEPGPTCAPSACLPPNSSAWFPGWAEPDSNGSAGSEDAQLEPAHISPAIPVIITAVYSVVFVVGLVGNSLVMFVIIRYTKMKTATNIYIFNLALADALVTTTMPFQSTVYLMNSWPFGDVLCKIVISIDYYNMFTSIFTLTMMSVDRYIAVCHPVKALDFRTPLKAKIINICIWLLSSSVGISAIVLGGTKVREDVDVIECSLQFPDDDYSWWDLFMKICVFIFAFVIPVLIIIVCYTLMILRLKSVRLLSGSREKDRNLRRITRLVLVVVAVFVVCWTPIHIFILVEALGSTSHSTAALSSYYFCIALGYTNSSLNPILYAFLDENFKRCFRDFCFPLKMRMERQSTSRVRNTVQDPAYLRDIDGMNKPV
The following compounds are listed with their measured log10 of Ki values.
Quick note: numbers are log10 of Ki, with nM as the unit.

In the examples that follow, each entry is paired with its recorded log10 of Ki.
Recorded log10 of Ki for `O=C(N[C@@H]1CC[C@@]2(O)[C@H]3Cc4ccc(O)c5c4[C@@]2(CCN3CC2CC2)[C@H]1O5)c1ccncc1Br` on UniProt:P41145 was 0.45

Recorded log10 of Ki for `O=C(N[C@@H]1CC[C@@]2(O)[C@H]3Cc4ccc(O)c5c4[C@@]2(CCN3CC2CC2)[C@H]1O5)c1ccnc(Br)c1` on UniProt:P41145 was -0.74

Recorded log10 of Ki for `O=C(CNC(=O)c1ccncc1)N[C@@H]1CC[C@@]2(O)[C@H]3Cc4ccc(O)c5c4[C@@]2(CCN3CC2CC2)[C@H]1O5` on UniProt:P41145 was 2.31

Recorded log10 of Ki for `CN1CCC(C(=O)N[C@@H]2CC[C@@]3(O)[C@H]4Cc5ccc(O)c6c5[C@@]3(CCN4CC3CC3)[C@H]2O6)CC1` on UniProt:P41145 was 0.81

Recorded log10 of Ki for `O=C(N[C@@H]1CC[C@@]2(O)[C@H]3Cc4ccc(O)c5c4[C@@]2(CCN3CC2CC2)[C@H]1O5)c1ccncc1Cl` on UniProt:P41145 was 1.30

Recorded log10 of Ki for `O=C(CCc1ccncc1)N[C@@H]1CC[C@@]2(O)[C@H]3Cc4ccc(O)c5c4[C@@]2(CCN3CC2CC2)[C@H]1O5` on UniProt:P41145 was 0.22

Recorded log10 of Ki for `O=C(N[C@@H]1CC[C@@]2(O)[C@H]3Cc4ccc(O)c5c4[C@@]2(CCN3CC2CC2)[C@H]1O5)c1ccnc(Cl)c1` on UniProt:P41145 was -0.82

Recorded log10 of Ki for `Cc1cnccc1C(=O)N[C@@H]1CC[C@@]2(O)[C@H]3Cc4ccc(O)c5c4[C@@]2(CCN3CC2CC2)[C@H]1O5` on UniProt:P41145 was 1.99

Continuing:
Recorded log10 of Ki for `O=C(Cc1ccncc1)N[C@@H]1CC[C@@]2(O)[C@H]3Cc4ccc(O)c5c4[C@@]2(CCN3CC2CC2)[C@H]1O5` on UniProt:P41145 was 0.95

Recorded log10 of Ki for `Cc1cc(C(=O)N[C@@H]2CC[C@@]3(O)[C@H]4Cc5ccc(O)c6c5[C@@]3(CCN4CC3CC3)[C@H]2O6)ccn1` on UniProt:P41145 was -0.24

* * *

The following molecules are listed with their measured Ki values.
measuredOn: Delta-type opioid receptor (Homo sapiens, UniProt P41143)
Sequence (P41143 whole entry): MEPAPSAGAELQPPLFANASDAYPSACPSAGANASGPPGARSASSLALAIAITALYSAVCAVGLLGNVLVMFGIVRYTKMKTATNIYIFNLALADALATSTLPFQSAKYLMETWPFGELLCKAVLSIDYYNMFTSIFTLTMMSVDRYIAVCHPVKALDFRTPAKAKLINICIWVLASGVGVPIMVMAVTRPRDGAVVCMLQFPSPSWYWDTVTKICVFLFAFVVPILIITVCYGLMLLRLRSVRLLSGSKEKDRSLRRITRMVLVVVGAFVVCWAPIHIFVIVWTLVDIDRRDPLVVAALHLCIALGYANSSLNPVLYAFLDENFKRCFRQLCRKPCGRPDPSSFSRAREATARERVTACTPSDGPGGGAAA
assaySummary: Displacement of [3H]-NTI from delta opioid receptor expressed in CHO cells after 1 hr
Lab book: enter the figure in nM, no units written.

In the examples that follow, each entry is paired with its recorded Ki.
Recorded Ki for `O=C(Cc1ccncc1)N[C@@H]1CC[C@@]2(O)[C@H]3Cc4ccc(O)c5c4[C@@]2(CCN3CC2CC2)[C@H]1O5` on Delta-type opioid receptor (Homo sapiens, UniProt P41143) was 866

Recorded Ki for `O=C(N[C@@H]1CC[C@@]2(O)[C@H]3Cc4ccc(O)c5c4[C@@]2(CCN3CC2CC2)[C@H]1O5)c1ccncc1Br` on Delta-type opioid receptor (Homo sapiens, UniProt P41143) was 128

Recorded Ki for `Cc1cc(C(=O)N[C@@H]2CC[C@@]3(O)[C@H]4Cc5ccc(O)c6c5[C@@]3(CCN4CC3CC3)[C@H]2O6)ccn1` on Delta-type opioid receptor (Homo sapiens, UniProt P41143) was 90.1

Continuing:
Recorded Ki for `O=C(N[C@@H]1CC[C@@]2(O)[C@H]3Cc4ccc(O)c5c4[C@@]2(CCN3CC2CC2)[C@H]1O5)c1ccncc1Cl` on Delta-type opioid receptor (Homo sapiens, UniProt P41143) was 502
